These entries and their values trace back to PubChem BioAssay (EPA / NIEHS).

Read-out: Cytochrome P450 7A1 (Homo sapiens) (UniProt P22680)
Test: LTEA_HepaRG_CYP7A1: Life Technologies and Expression Analysis (LTEA) Assay for Cytochrome P450 7A1 (CYP7A1) using HepaRG (AID 2283496)
Details: mRNA level, 48 h; actives raise or lower the signal
Calls of active or inactive are those of the source. How the source made its calls: active means hit-call score of the fitted dose curve at least 0.9, where 1 is the maximum; inactive means score below 0.9.
Returns: one label drawn from 1 (yes) (active), 0 (no) (inactive)

Worked cases, answers included:
Line notation: c1ccc2n[nH]nc2c1
Assigned label: 0 (no)
--
Line notation: CCO[Si](CCCNC(N)=O)(OCC)OCC
Assigned label: 0 (no)
--
Line notation: CCCCCCCCN(C)CCCCCCCC
Assigned label: 0 (no)

Lab log entry: CCN(Cc1cccnc1)C(=O)c1cccc(Cl)c1[C@]1(C)C(=O)N(Cc2ccc(OC)cc2OC)c2ccc(Cl)cc21 — outcome as called in the assay?
1 (yes)

---

Measured AC50 values are reported for all entries that follow.
Molecular target: human CYP1A2, CYP1A2 (gene 1544) (UniProt P05177)
Sequence (P05177 whole entry, looked up): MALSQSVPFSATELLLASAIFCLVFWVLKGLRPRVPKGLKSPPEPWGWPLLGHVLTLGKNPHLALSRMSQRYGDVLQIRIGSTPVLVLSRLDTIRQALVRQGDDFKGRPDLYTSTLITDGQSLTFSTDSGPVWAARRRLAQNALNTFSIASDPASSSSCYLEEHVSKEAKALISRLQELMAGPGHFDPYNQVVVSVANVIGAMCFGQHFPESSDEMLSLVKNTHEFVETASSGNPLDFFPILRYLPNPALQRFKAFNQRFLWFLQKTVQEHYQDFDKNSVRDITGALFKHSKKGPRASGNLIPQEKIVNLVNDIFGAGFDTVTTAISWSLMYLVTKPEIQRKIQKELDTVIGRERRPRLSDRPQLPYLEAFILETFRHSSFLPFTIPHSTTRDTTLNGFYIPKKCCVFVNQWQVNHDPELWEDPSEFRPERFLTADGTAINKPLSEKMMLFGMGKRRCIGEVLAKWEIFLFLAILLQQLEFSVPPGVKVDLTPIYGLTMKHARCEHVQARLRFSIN
Assay: NVS_ADME_hCYP1A2: NovaScreen (NVS) CYP450-related Enzyme Activity (ADME) Assay for human CYP1A2 (AID 2283102);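 further: fluorescence from turnover of a fluorogenic substrate by recombinant insect-cell CYP1A2; potency for inhibition since loss of fluorescence marks reduced CYP1A2 activity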
The source made the active and inactive calls. The calls were made as follows: active = hit-call score of the fitted dose curve at least 0.9, where 1 is the maximum; inconclusive = response in the unintended direction; inactive = score below 0.9.

These solved cases illustrate the format of a correct answer.
Line notation: CCCCCCCCOC(=O)c1cc(O)c(O)c(O)c1
Endpoint value: 4.26 µM (active)

Line notation: Cc1c2ccccc2c(C)c2c1ccc1ccccc12
Endpoint value: 4.33 µM (active)

What value of AC50 has been reported for the following compound? CCOC(=O)O[C@H](C)OC(=O)c1ccc2c(c1)cc(C(=O)NC1CCN(C(C)C)CC1)n2Cc1cc(-c2ccc(Cl)s2)on1
13.7 µM (active)

---

Read-out: CD69, CD69 (gene 969)
Test: BSK_SAg_CD69: BioMAP Diversity Plus: SAg Assay for CD69 Biomarker Activity (AID 2283089)
Settings: primary human HUVEC with PBMC; actives raise or lower the signal
Activity calls are given as the source filed them. The calls were made as follows: active = hit-call score of the fitted dose curve at least 0.9, where 1 is the maximum; inactive = score below 0.9.
Returns: one label drawn from active, inactive

Worked cases, answers included:
Compound: O=CCCCC=O
Assigned label: inactive
//
Compound: CN1C(=O)CC[C@H]1c1cccnc1
Assigned label: inactive
//
Compound: CCCCCCCCCCCO
Assigned label: inactive

Lab log entry: CC/C(=C(/CC)c1ccc(O)cc1)c1ccc(O)cc1 — outcome as called in the assay?
active

Lab log entry: CC(C)(C)c1csc(-c2cc3cc(OCc4ccccc4CC(=O)O)ccc3o2)n1 — outcome as called in the assay?
active

Lab log entry: CC1=CC(=O)/C(=C(/C)O)C(=O)O1 — outcome as called in the assay?
inactive

Lab log entry: O=c1ccc2ccccc2o1 — outcome as called in the assay?
inactive

Lab log entry: CCCCCCCC[Si](OCC)(OCC)OCC — outcome as called in the assay?
active

Lab log entry: CN1C(=O)N(c2ccccc2Br)Cc2cnc(Nc3ccc4c(c3)OCC(CO)O4)nc21 (stereo not drawn) — outcome as called in the assay?
active

Lab log entry: Cc1oc2c(NC(=O)c3c(Cl)cccc3Cl)cccc2c1C(C)(C)O — outcome as called in the assay?
active

Lab log entry: CCCCCCCCOc1ccc(C(=O)c2ccccc2)c(O)c1 — outcome as called in the assay?
inactive

Lab log entry: Cc1c2ccccc2c(C)c2c1ccc1ccccc12 — outcome as called in the assay?
active

Lab log entry: Cc1ccc(C(C)C)cc1 — outcome as called in the assay?
inactive

---

Read-out: urokinase plasminogen activator (uPA), PLAU (gene 5328)
Test: BSK_KF3CT_uPA: BioMAP Diversity Plus: KF3CT Assay for urokinase plasminogen activator (uPA) Biomarker Activity (AID 2283075)
Conditions: primary human keratinocytes with fibroblasts; actives raise or lower the signal
Activity calls are given as the source filed them. Rule for the calls: active = hit-call score of the fitted dose curve at least 0.9, where 1 is the maximum; inactive = score below 0.9.
Returns: one label drawn from 1.0 for active, 0.0 for inactive

Lab log entry: c1ccc2n[nH]nc2c1 — outcome as called in the assay?
0.0

Lab log entry: Cc1cc2c(cc1C(F)(F)F)N(C(=O)Nc1ccc(Oc3cccnc3C)nc1)CC2 — outcome as called in the assay?
1.0

Lab log entry: Clc1cc(Cl)c2c(c1)N=C1CCCCCN1C2 — outcome as called in the assay?
0.0

Lab log entry: CCCOC(=O)c1cc(O)c(O)c(O)c1 — outcome as called in the assay?
1.0

---

Assay: ATG_DR4_LXR_CIS: Attagene CIS-FACTORIAL HepG2 Assay for human Liver X Receptor (LXR), DR4 submotif (AID 2282929)
Conditions: HepG2 Attagene DR4 cis-reporter, mRNA transcription; actives raise or lower the signal
Active and inactive are the calls of the source. How the source made its calls: active means hit-call score of the fitted dose curve at least 0.9, where 1 is the maximum; inactive means score below 0.9.
Observable: AC50

These solved cases illustrate the format of a correct answer.
Compound: CCN(Cc1cccnc1)C(=O)c1cccc(Cl)c1[C@]1(C)C(=O)N(Cc2ccc(OC)cc2OC)c2ccc(Cl)cc21
Observable: AC50
Endpoint value: 7.45 µM (active)
--
Compound: CN1C(=O)N(c2ccccc2Br)Cc2cnc(Nc3ccc4c(c3)OCC(CO)O4)nc21 (configuration not stated)
Observable: AC50
Endpoint value: 27.1 µM (active)
--
Compound: CN(C)C(=O)C1(N2CCCCC2)CCN(CC[C@@]2(c3ccc(Cl)c(Cl)c3)CN(C(=O)c3ccccc3)CCO2)CC1
Observable: AC50
Endpoint value: inactive
--
Compound: CC(C)(C)c1csc(-c2cc3cc(OCc4ccccc4CC(=O)O)ccc3o2)n1
Observable: AC50
Endpoint value: 4.56 µM (active)
--
Compound: CC(C)(C)c1cc(/C=C2\SC(N)=NC2=O)cc(C(C)(C)C)c1O
Observable: AC50
Endpoint value: 6.65 µM (active)

What value of AC50 has been reported for the following compound? Cc1ccc2oc(CN(Cc3ccccc3)C(=O)Nc3c(F)cc(F)cc3F)c(-c3ccc(Cl)cc3)c2c1
inactive

What value of AC50 has been reported for the following compound? NCc1cccc(C2CCN(C(=O)c3ccc(C#Cc4ccccc4F)o3)CC2)c1
inactive

What value of AC50 has been reported for the following compound? O=C=NCCCCCCN=C=O
inactive

What value of AC50 has been reported for the following compound? O=C1c2ccccc2C(=O)N1CCc1noc(-c2ccc(CN3CCCCCC3)s2)n1
84.5 µM (active)

What value of AC50 has been reported for the following compound? CC(C)(O)c1ccc(CNC(=O)c2cccnc2Oc2ccc3nonc3c2)cc1
inactive

What value of AC50 has been reported for the following compound? O=c1[nH]sc2ccccc12
inactive

What value of AC50 has been reported for the following compound? CC(O)CC(C)(C)O (configuration not stated)
inactive

---

Biological target: Retinoic acid receptor alpha (Homo sapiens)
Experiment: ATG_DR5_RAR_CIS: Attagene CIS-FACTORIAL HepG2 Assay for human Retinoic Acid Receptor Alpha (RARE), DR5 submotif (AID 2282934)
Settings: HepG2 Attagene cis-factorial RARE DR5 reporter, mRNA; actives raise or lower the signal
Active and inactive are the calls of the source. How the source made its calls: active means hit-call score of the fitted dose curve at least 0.9, where 1 is the maximum; inactive means score below 0.9.
Returns: one label drawn from active, inactive

Lab log entry: CCCCCCCCCC(=O)O — outcome as called in the assay?
inactive

Lab log entry: Cc1occc1C(=O)Nc1ccc(C(=O)N2CCC(F)(F)/C(=C\C(=O)N3CCC(N4CCCCC4)CC3)c3ccccc32)cc1 — outcome as called in the assay?
inactive

Lab log entry: CC(C)(O)c1ccc(CNC(=O)c2cccnc2Oc2ccc3nonc3c2)cc1 — outcome as called in the assay?
inactive

Lab log entry: CCCCCc1ccc(N)cc1 — outcome as called in the assay?
inactive

Lab log entry: COCC(C)OCC(C)OCC(C)O (centres undefined) — outcome as called in the assay?
inactive

---

Assay: BSK_LPS_PGE2: BioMAP Diversity Plus: LPS Assay for Prostaglandin E2 (PGE2) Biomarker Activity (AID 2283082)
Conditions: primary human HUVEC with PBMC; actives raise or lower the signal
Active and inactive are the calls of the source. Rule for the calls: active = hit-call score of the fitted dose curve at least 0.9, where 1 is the maximum; inactive = score below 0.9.
Returns: one label drawn from true for active, false for inactive

Lab log entry: OC12N=C(c3ccccc3)SC1Cc1cc(Cl)ccc12 (stereo not drawn) — outcome as called in the assay?
false

Lab log entry: CCCCCc1ccc(N)cc1 — outcome as called in the assay?
true

---

Read-out: Interferon-gamma inducible Protein 10 (IP10), CXCL10 (gene 3627)
Assay: BSK_KF3CT_IP10: BioMAP Diversity Plus: KF3CT Assay for Interferon-gamma inducible Protein 10 (IP10) Biomarker Activity (AID 2283068)
Details: primary human keratinocytes with fibroblasts; actives raise or lower the signal
Protocol: BSK_KF3CT is a cell-based, multiplexed-readout assay that uses keratinocytes and foreskin fibroblasts, a human skin primary cell co-culture, with measurements taken at 24 hours after chemical dosing in a 96-well plate.BSK_KF3CT_IP10 is an assay component measured in the BSK_KF3CT assay. It measures IP-10 antibody related to regulation of gene expression using ELISA technology.Data from the assay component BSK_KF3CT_IP10 was analyzed into 1 assay endpoint. […]
The source made the active and inactive calls. The calls were made as follows: active = hit-call score of the fitted dose curve at least 0.9, where 1 is the maximum; inactive = score below 0.9.
Returns: one label drawn from active, inactive

Worked cases, answers included:
Compound: Cc1oc2c(NC(=O)c3c(Cl)cccc3Cl)cccc2c1C(C)(C)O
Assigned label: inactive

Compound: O=C(Nc1ccc(Cl)cc1)Nc1ccc(Cl)c(Cl)c1
Assigned label: inactive

Compound: CCCCCCCCOC(=O)c1cc(O)c(O)c(O)c1
Assigned label: active

Lab log entry: CCCCOC(=O)c1ccc(O)cc1 — outcome as called in the assay?
inactive

Lab log entry: CCCCCCCCOc1ccc(C(=O)c2ccccc2)c(O)c1 — outcome as called in the assay?
inactive

Lab log entry: CCCCCCCCCCCCO — outcome as called in the assay?
active

Lab log entry: CC(C)(c1cc(Br)c(O)c(Br)c1)c1cc(Br)c(O)c(Br)c1 — outcome as called in the assay?
active

Lab log entry: O=C(O)Cn1c(=O)n(Cc2ccc(Br)cc2F)c(=O)c2ccc(Cl)cc21 — outcome as called in the assay?
inactive

Lab log entry: CCO[Si](CCCNC(N)=O)(OCC)OCC — outcome as called in the assay?
inactive

Lab log entry: O=C(O)Cc1cc(I)c(Oc2ccc(O)c(I)c2)c(I)c1 — outcome as called in the assay?
active

Lab log entry: Cc1cn([C@H]2C[C@H](N=[N+]=[N-])[C@@H](CO)O2)c(=O)[nH]c1=O — outcome as called in the assay?
inactive

Lab log entry: CCCC(=O)OCCC(C)C — outcome as called in the assay?
inactive

Lab log entry: NC(=O)c1nc(-c2cccc(-c3cc(F)ccc3OCC(F)(F)C(F)(F)F)c2)n[nH]1 — outcome as called in the assay?
active
